Attribution: paper PMC2248166

# tested system: HLA A*3001 (Homo sapiens, UniProt P04439, D140H/D185E/E176W/F33S/G80R/H175R/K168Q/R138E/R41S)
# test summary: biochemical
Where a SMILES comes first, the peptide text is derived from it.
result type: IC50 (nM)
Give your result in nM as a bare value.

compound | IC50 / nM
C[C@H](NC(=O)[C@H](CCCNC(=N)N)NC(=O)[C@H](Cc1ccccc1)NC(=O)[C@H](CCCCN)NC(=O)[C@@H]1CCCN1C(=O)[C@@H]1CCCN1C(=O)[C@H](CCCCN)NC(=O)[C@H](Cc1ccccc1)NC(=O)[C@@H](N)Cc1c[nH]cn1)C(=O)O [3102.0279] (H-HFKPPKFRA-OH) | 8.9

Okay, now this compound:
IN: Fill in the blank: the reported IC50 of CC[C@H](C)[C@H](N)C(=O)N[C@H](C(=O)N[C@@H](CCCCN)C(=O)N[C@H](C(=O)N[C@@H](CC(N)=O)C(=O)N[C@H](C(=O)N[C@@H](Cc1c[nH]cn1)C(=O)N[C@@H](CC(C)C)C(=O)N[C@@H](C)C(=O)O)[C@@H](C)O)[C@@H](C)CC)[C@@H](C)O [3102.0001] (H-ITKINTHLA-OH) is ____.
OUT: 15
